- MEASURED_ON: δ opioid receptors (Mus musculus, UniProt P32300)
- Construct: Bioassays Using Isolated Organ Preparations; from tissue; host or cells: mouse vas deferens (isolated organ)
- Sequence (P32300 whole entry): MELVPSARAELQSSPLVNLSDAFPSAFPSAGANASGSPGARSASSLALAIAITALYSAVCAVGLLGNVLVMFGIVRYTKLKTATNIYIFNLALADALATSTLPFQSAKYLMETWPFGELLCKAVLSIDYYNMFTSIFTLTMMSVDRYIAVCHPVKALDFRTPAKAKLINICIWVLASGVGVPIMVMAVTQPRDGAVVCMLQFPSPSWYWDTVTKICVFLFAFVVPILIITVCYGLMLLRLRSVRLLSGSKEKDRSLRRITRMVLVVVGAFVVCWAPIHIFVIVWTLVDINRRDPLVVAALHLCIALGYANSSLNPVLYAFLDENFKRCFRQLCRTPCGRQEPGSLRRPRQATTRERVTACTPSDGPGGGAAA
- ASSAY_PROTOCOL: Mouse vas deferens (MVD) bioassay, antagonism of electrically evoked contraction inhibition by δ-selective agonists
- Format: tissue-based
- CONDITION_CONTEXT: Ke (nM) against [D-Ala2]deltorphin I, MVD assay; δ agonist [D-Ala2]deltorphin I; means of 3-8 determinations
- Excerpt: a) Biosassys based on inhibition of electrically evoked contractions of the mouse vas deferens (MVD) and of the guinea pig ileum (GPI). In the GPI assay the opioid effect is primarily mediated by μ opioid receptors, whereas in the MVD assay the inhibition of the contractions is mostly due to interaction with δ opioid receptors. The GPI and MVD bioassays were carded out as reported in P. W. Schiller et al., Biochem. Biophys. […]
Peptide text beside a SMILES is read from it.
I'd appreciate it if you could supply log10 Kb values for the items below.
Hey, these are logged values: log10 of Kb, nM being the unit before logging.

Recorded result, N[C@@H](Cc1ccc(O)cc1)C(=O)N1Cc2ccccc2C[C@H]1C(=O)N[C@@H](Cc1c[nH]c2ccccc12)C(=O)N[C@@H](Cc1ccccc1)C(=O)O [HTyrTicTrpPheOH, H-Tyr-Tic-Trp-Phe-OH] (HELM PEPTIDE1{Y.[Tic].W.F}$$$$V2.0) , log10 Kb: 0.22

// log10 Kb lookup, compound = N[C@@H](Cc1ccc(O)cc1)C(=O)N1Cc2ccccc2C[C@H]1C(=O)N[C@@H](CCc1ccccc1)C(=O)N[C@@H](Cc1ccccc1)C(=O)O [HTyrTicHfePheOH, H-Tyr-Tic-Hfe-Phe-OH] (HELM PEPTIDE1{Y.[Tic].[O=C([C@H](CCc1ccccc1)N[*:1])[*:2]].F}$$$$V2.0) , result: -0.39

N[C@@H](Cc1ccc(O)cc1)C(=O)N1Cc2ccccc2C[C@H]1C(=O)N[C@H](C(=O)N[C@@H](Cc1ccccc1)C(=O)O)c1ccccc1 [HTyrTicPhgPheOH, H-Tyr-Tic-Phg-Phe-OH] (HELM PEPTIDE1{Y.[Tic].[Phg].F}$$$$V2.0) has a reported log10 Kb of 0.92

Value of measured log10 Kb for the entry NC(=O)[C@H](Cc1c[nH]c2ccccc12)NC(=O)[C@H](Cc1ccccc1)NC(=O)[C@@H]1Cc2ccccc2CN1C(=O)[C@@H](N)Cc1ccc(O)cc1 [HTyrTicPheTrpNH2, H-Tyr-Tic-Phe-Trp-NH2] (HELM PEPTIDE1{Y.[Tic].F.W.[am]}$$$$V2.0) : 1.59

Memo: CCN(CC)[C@@H](Cc1ccc(O)cc1)C(=O)N1Cc2ccccc2C[C@H]1C(=O)N[C@@H](Cc1ccccc1)C(=O)N[C@@H](Cc1ccccc1)C(=O)O , reported log10 Kb: 0.36

Reported log10 Kb ( Cc1cc(O)cc(C)c1C[C@H](N)C(=O)N1Cc2ccccc2C[C@H]1CN[C@@H](Cc1ccccc1)C(=O)N[C@@H](Cc1ccccc1)C(N)=O [HDmtTic.psi.[CH2NH]PhePheNH2, H-Dmt-Tic.PSI.[CH2 --NH]Phe-Phe-NH2] ) = -0.31

compound N[C@@H](Cc1ccc(O)cc1)C(=O)N1Cc2ccccc2C[C@H]1C(=O)N[C@@H](Cc1ccccc1)C(=O)N[C@@H](Cc1ccc([N+](=O)[O-])cc1)C(=O)O [HTyrTicPhePhe(pNO2)OH, H-Tyr-Tic-Phe-Phe(pNO2)-OH] (HELM PEPTIDE1{Y.[Tic].F.[O=C(O)[C@H](Cc1ccc([N+](=O)[O-])cc1)N[*:1]]}$$$$V2.0) , log10 Kb observed: 0.45

Briefly, log10 Kb measured for CN[C@@H](Cc1ccc(O)cc1)C(=O)N1Cc2ccccc2C[C@H]1CN[C@@H](CCc1ccccc1)C(=O)N[C@@H](Cc1ccccc1)C(=O)O [Tyr(NMe)-Tic.psi.[CH2NH]HfePheOH, Tyr(NMe)-Tic.PSI.[CH2 --NH]Hfe-Phe-OH] : -0.38

* * *

- MEASURED_ON: δ opioid receptors (Mus musculus, UniProt P32300)
- Construct: Bioassays Using Isolated Organ Preparations; from tissue; host or cells: mouse vas deferens (isolated organ)
- ASSAY_PROTOCOL: Mouse vas deferens (MVD) bioassay, antagonism of electrically evoked contraction inhibition by δ-selective agonists
- Format: tissue-based
- CONDITION_CONTEXT: Ke (nM) against [D-Ala2]deltorphin I, MVD assay; δ agonist [D-Ala2]deltorphin I; means of 3-8 determinations
Peptide text beside a SMILES is read from it.
Consider the following compounds; for each one, report its Kb.
Hi! Could you send only the number? It should be in nM, unit omitted.

Short answer for N[C@@H](Cc1ccc(O)cc1)C(=O)N1Cc2ccccc2C[C@H]1C(=O)NC1(C(=O)N[C@@H](Cc2ccccc2)C(=O)O)CCc2ccccc2C1 (stereo partly drawn) [HTyrTicAtcPheOH, H-Tyr-Tic-Atc-Phe-OH] (HELM PEPTIDE1{Y.[Tic].[O=C(C1(N[*:1])CCc2ccccc2C1)[*:2]].F}$$$$V2.0) : Kb was 0.927

The recorded Kb for entry N[C@@H](Cc1ccc(O)c(F)c1)C(=O)N1Cc2ccccc2C[C@H]1C(=O)N[C@@H](Cc1ccccc1)C(=O)N[C@@H](Cc1ccccc1)C(=O)O [HTyr(3-F)TicPhePheOH, H-Tyr(3-F)-Tic-Phe-Phe-OH] (HELM PEPTIDE1{[N[C@@H](Cc1ccc(O)c(F)c1)C(=O)[*:2]].[Tic].F.F}$$$$V2.0) equals 8.73

// Kb value for NC(=O)[C@H](Cc1ccccc1)NC(=O)[C@@H]1Cc2ccccc2CN1C(=O)[C@@H](N)Cc1ccc(O)cc1 [HTyrTicPheNH2, H-Tyr-Tic-Phe-NH2] (HELM PEPTIDE1{Y.[Tic].F.[am]}$$$$V2.0) : 58.9

The recorded Kb for entry CCCC[C@H](NC(=O)[C@H](CC(C)C)NC(=O)[C@H](Cc1ccccc1)NC(=O)[C@H](Cc1ccccc1)NC(=O)[C@@H]1Cc2ccccc2CN1C(=O)[C@@H](N)Cc1ccc(O)cc1)C(=O)N[C@@H](CC(=O)O)C(N)=O [HTyrTicPhePheLeuNleAspNH2, H-Tyr-Tic-Phe-Phe-Leu-Nle-Asp-NH2] (HELM PEPTIDE1{Y.[Tic].F.F.L.[Nle].D.[am]}$$$$V2.0) equals 10.8

Summary for this compound, O=C(O)[C@H](Cc1ccccc1)NC(=O)[C@H](Cc1ccccc1)NC(=O)[C@@H]1Cc2ccccc2CN1C(=O)[C@H](Cc1ccc(O)cc1)NCC1CC1 : Kb is 32.5

Looking up Cc1cc(O)cc(C)c1C[C@H](N)C(=O)N1Cc2ccccc2C[C@H]1C(=O)N[C@@H](Cc1ccccc1)C(=O)N[C@@H](Cc1ccccc1)C(N)=O [HDmtTicPhePheNH2, H-Dmt-Tic-Phe-Phe-NH2] (HELM PEPTIDE1{[Cc1cc(O)cc(C)c1C[C@H](N)C(=O)[*:2]].[Tic].F.F.[am]}$$$$V2.0) , I found its Kb recorded as 0.26

# Kb (compound: CCCCCCN[C@@H](Cc1ccc(O)cc1)C(=O)N1Cc2ccccc2C[C@H]1C(=O)N[C@@H](Cc1ccccc1)C(=O)N[C@@H](Cc1ccccc1)C(=O)O ) is 10.6

* * *

- MEASURED_ON: δ opioid receptors (Mus musculus, UniProt P32300)
- Construct: Bioassays Using Isolated Organ Preparations; from tissue; host or cells: mouse vas deferens (isolated organ)
- ASSAY_PROTOCOL: Mouse vas deferens (MVD) bioassay, antagonism of electrically evoked contraction inhibition by δ-selective agonists
- Assay type: tissue-based
- CONDITION_CONTEXT: Ke (nM) against [D-Ala2]deltorphin I, MVD assay; δ agonist [D-Ala2]deltorphin I; means of 3-8 determinations
Peptide text beside a SMILES is read from it.
PROPERTY: Kb (nM)
Record the value in nM, omitting the unit from your answer.

Entry NC(=O)[C@H](CO)NC(=O)[C@@H]1CCCN1C(=O)[C@H](Cc1ccc(O)cc1)NC(=O)[C@H](Cc1ccc([N+](=O)[O-])cc1)NC(=O)[C@H](Cc1c[nH]c2ccccc12)NC(=O)[C@@H]1Cc2ccccc2CN1C(=O)[C@@H](N)Cc1ccc(O)cc1 [HTyrTicTrpPhe(pNO2)TyrProSerNH2] (HELM PEPTIDE1{Y.[Tic].W.[O=C([C@H](Cc1ccc([N+](=O)[O-])cc1)N[*:1])[*:2]].Y.P.S.[am]}$$$$V2.0) — recorded Kb = 3.91

Reported Kb of N[C@@H](Cc1ccc(O)cc1)C(=O)N1Cc2ccccc2C[C@H]1CN[C@@H](CCc1ccccc1)C(=O)N[C@@H](Cc1ccccc1)C(=O)O [HTyrTic.psi.[CH2NH]HfePheOH, H-Tyr-Tic-.PSI.[CH2 --NH]Hfe-Phe-OH] : 1.9

Quick note, Kb for N[C@@H](Cc1ccc(O)cc1)C(=O)N1Cc2ccccc2C[C@H]1C(=O)N[C@@H](Cc1ccc2ccccc2c1)C(=O)N[C@@H](Cc1ccccc1)C(=O)O [HTyrTic-2-NalPheOH, H-Tyr-Tic-2-Nal-Phe-OH] (HELM PEPTIDE1{Y.[Tic].[O=C([C@H](Cc1ccc2ccccc2c1)N[*:1])[*:2]].F}$$$$V2.0) landed at 4.17
